Just for reference, the supplement of paper PMC10899765 is where these values come from.

Form field: one-nucleolus phenotype percent effect (one value per entry).
tested on: MCF10A; assay: one-nucleolus phenotype percent effect (relative to siNT 0% and siNOL11 100%); higher = more cells with one nucleolus (ribosome biogenesis inhibition); conditions: 20 nM; 72 h
Enter your answer as a number in %; do not include the unit.

Reported one-nucleolus phenotype percent effect of UAAAAACUGCAAUUACUUUUA [hsa-miR-548aj-3p] : -18.5

###

tested on: MCF10A; test: one-nucleolus phenotype percent effect (relative to siNT 0% and siNOL11 100%); higher = more cells with one nucleolus (ribosome biogenesis inhibition); conditions: 20 nM; 72 h
Mark satisfied for reported one-nucleolus phenotype percent effect of -20% or greater; mark not satisfied for anything smaller.

Challenge: Can GCUGGUCUGCGUGGUGCUCGG [hsa-miR-3663-5p] be said to have one-nucleolus phenotype percent effect at or above -20%?
Response given: not satisfied

Challenge: Can AGAAGUAAUUGCGGUUUUGCCA [hsa-miR-548ax] be said to have one-nucleolus phenotype percent effect at or above -20%?
Response given: satisfied

Challenge: Can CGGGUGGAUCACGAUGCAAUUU [hsa-miR-363-5p] be said to have one-nucleolus phenotype percent effect at or above -20%?
Response given: not satisfied

Challenge: Can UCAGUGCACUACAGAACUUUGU [hsa-miR-148a-3p] be said to have one-nucleolus phenotype percent effect at or above -20%?
Response given: satisfied

Challenge: Can GUGUGGAAGAUGGGAGGAGAAA [hsa-miR-6833-5p] be said to have one-nucleolus phenotype percent effect at or above -20%?
Response given: satisfied

Challenge: Can GGAGGCCGGGGUGGGGCGGGGCGG [hsa-miR-6089] be said to have one-nucleolus phenotype percent effect at or above -20%?
Response given: not satisfied

###

tested on: MCF10A; test: percent viability (nuclei count relative to siNT); higher = more viable cells; conditions: 20 nM; 72 h
Form field: percent viability (one value per entry).
Enter your answer as a number in %; do not include the unit.

Here is how some sequences turned out for percent viability.
UGUCUUUCUUCUCUCCCUUGCAG [hsa-miR-6830-3p] : 19.9
UCUGUGCUACUGGAUGAAGAGU [hsa-miR-7157-3p] : 92.3
CCGGUCCCAGGAGAACCUGCAGA [hsa-miR-4746-5p] : 45.1
UCAGGCAGUGUGGGUAUCAGAU [hsa-miR-4692] : 23.4
CCACCAGGUCUAGCAUUGGGAU [hsa-miR-4733-3p] : 29.8
UUUAGUGUGAUAAUGGCGUUUGA [hsa-miR-3591-5p] : 39.6
UGCAAAAGUAAUUGCAGUUUUUG [hsa-miR-548g-5p] : 73.1
UCACCUGGCUGGCCCGCCCAG [hsa-miR-6765-3p] : 63.1
CUUCCAGACGCUCCGCCCCACGUCG [hsa-miR-3180-5p] : 67.4
CUCAUUUAAGUAGUCUGAUGCC [hsa-miR-5696] : 125

Reported percent viability of CCGUGUUUCCCCCACGCUUU [hsa-miR-3676-3p] : 72.3

Reported percent viability of UUAGUGCAUAGUCUUUGGUCU [hsa-miR-4671-3p] : 85.2

Reported percent viability of UACGCGCAGACCACAGGAUGUC [hsa-miR-3939] : 38.1

###

Form field: 5+ nucleoli phenotype percent effect (one value per entry).
test system: MCF10A; test: 5+ nucleoli phenotype percent effect (relative to siNT 0% and siKIF11 100%); higher = more cells with five or more nucleoli; conditions: 20 nM; 72 h
Enter your answer as a number in %; do not include the unit.

Here is how some sequences turned out for 5+ nucleoli phenotype percent effect.
GUGCAUUGCUGUUGCAUUGC [hsa-miR-33b-5p] : 36
UCCCUCUCCCACCCCUUGCAG [hsa-miR-6892-3p] : 42.4
CAAAGUGCCUCCCUUUAGAGUG [hsa-miR-519d] : 62.9
UGCCCUCCUUUCUUCCCUC [hsa-miR-4290] : -8.55
CAAACCCCUGUCUACCCGCAG [hsa-miR-6771-3p] : -19.1
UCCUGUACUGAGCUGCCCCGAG [hsa-miR-486-5p] : 1.79

Reported 5+ nucleoli phenotype percent effect of AAAGAUCUGGAAGUGGGAGACA [hsa-miR-3156-5p] : 45.1

Reported 5+ nucleoli phenotype percent effect of AGGGCAUAGGAGAGGGUUGAUAU [hsa-miR-3945] : 34.8

Reported 5+ nucleoli phenotype percent effect of UCUGGCCAGCUACGUCCCCA [hsa-miR-3190-5p] : 19.8

Reported 5+ nucleoli phenotype percent effect of AAUAAUAUCACAGUAGGUGU [hsa-miR-5692b] : 46.7

Reported 5+ nucleoli phenotype percent effect of UGGGAUCCAGACAGUGGGAGAA [hsa-miR-4713-3p] : 16.3

###

tested on: MCF10A; assay: one-nucleolus phenotype percent effect (relative to siNT 0% and siNOL11 100%); higher = more cells with one nucleolus (ribosome biogenesis inhibition); details: 20 nM; 72 h
Metric Name: one-nucleolus phenotype percent effect (%)
Enter your answer as a number in %; do not include the unit.

Reported one-nucleolus phenotype percent effect of UCUGCCAUAGGAAGCUUGGAGUGG [hsa-miR-6817-5p] : -25

Reported one-nucleolus phenotype percent effect of AGGGGACCAAAGAGAUAUAUAG [hsa-miR-3144-5p] : -9.41

Reported one-nucleolus phenotype percent effect of CGCCGCGCGCAUCGGCUCAGC [hsa-miR-6869-3p] : 4.08

Reported one-nucleolus phenotype percent effect of AUAGGCACCAAAAAGCAACAA [hsa-miR-4423-3p] : 0.708

Reported one-nucleolus phenotype percent effect of AAGGGAAGAUGGUGACCAC [hsa-miR-9500] : 15.1

###

system: MCF10A; test: one-nucleolus phenotype percent effect (relative to siNT 0% and siNOL11 100%); higher = more cells with one nucleolus (ribosome biogenesis inhibition); conditions: 20 nM; 72 h
Form field: one-nucleolus phenotype percent effect (one value per entry).
Enter your answer as a number in %; do not include the unit.

Reported one-nucleolus phenotype percent effect of AUGGAAUGUAUAUACGGAAUA [hsa-miR-3673] : 63.4

Reported one-nucleolus phenotype percent effect of GUAGAUUCUCCUUCUAUGAGUA [hsa-miR-376a-5p] : -7.97

Reported one-nucleolus phenotype percent effect of AGGUGCUCCAGGCUGGCUCACA [hsa-miR-3907] : 27.7

###

tested on: MCF10A; assay: one-nucleolus phenotype percent effect (relative to siNT 0% and siNOL11 100%); higher = more cells with one nucleolus (ribosome biogenesis inhibition); settings: 20 nM; 72 h
Mark true (1) for reported one-nucleolus phenotype percent effect of -10% or greater; mark false (0) for anything smaller.

UGGGAGCUAAGCUAUGGGUAU [hsa-miR-5591-5p] : true (1)
UGGAUGACAGUGGAGGCCU [hsa-miR-6744-5p] : true (1)
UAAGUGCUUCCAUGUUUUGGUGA [hsa-miR-302a-3p] : false (0)
UGGAGAGAAAGGCAGUA [hsa-miR-4306] : true (1)
UGAGGGAGGAGACUGCA [hsa-miR-4419a] : true (1)

Challenge: Can GGCUCAUGUGUCUGUCCUCUUC [hsa-miR-6847-3p] be said to have one-nucleolus phenotype percent effect at or above -10%?
Response given: false (0)

Challenge: Can CCCAUGCCUCCUGCCGCGGUC [hsa-miR-6872-3p] be said to have one-nucleolus phenotype percent effect at or above -10%?
Response given: true (1)

Challenge: Can AAAGUGCUUCCUUUUAGAGGGU [hsa-miR-520c-3p] be said to have one-nucleolus phenotype percent effect at or above -10%?
Response given: false (0)

Challenge: Can GAUGAUGAUGGCAGCAAAUUCUGAAA [hsa-miR-1272] be said to have one-nucleolus phenotype percent effect at or above -10%?
Response given: true (1)

Challenge: Can CACGGCAAAAGAAACAAUCCA [hsa-miR-4445-3p] be said to have one-nucleolus phenotype percent effect at or above -10%?
Response given: false (0)

Challenge: Can UCAAGGCCAGAGGUCCCACAGCA [hsa-miR-3922-5p] be said to have one-nucleolus phenotype percent effect at or above -10%?
Response given: true (1)

Challenge: Can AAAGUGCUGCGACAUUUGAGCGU [hsa-miR-372] be said to have one-nucleolus phenotype percent effect at or above -10%?
Response given: false (0)

###

test system: MCF10A; assay: 5+ nucleoli phenotype percent effect (relative to siNT 0% and siKIF11 100%); higher = more cells with five or more nucleoli; settings: 20 nM; 72 h
Mark Satisfied for reported 5+ nucleoli phenotype percent effect of -20% or greater; mark Not satisfied for anything smaller.

CUGGGUGAGGGCAUCUGUGGU [hsa-miR-6736-5p] : Not satisfied
AGUUUUGCAGGUUUGCAUCCAGC [hsa-miR-19b-1-5p] : Not satisfied
CUGCAAUGUAAGCACUUCUUAC [hsa-miR-106a-3p] : Not satisfied
CUGGGAGGUGUGAUAUCGUGGU [hsa-miR-3689a-3p] : Satisfied
UAGGGGGCGGCUUGUGGAGUGU [hsa-miR-6805-5p] : Satisfied
GCUAUUUCACGACACCAGGGUU [hsa-miR-138-2-3p] : Not satisfied

Now examine the next entry.
Challenge: Can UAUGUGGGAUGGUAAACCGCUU [hsa-miR-299-3p] be said to have 5+ nucleoli phenotype percent effect at or above -20%?
Response given: Not satisfied
